Where do the numbers come from? From ChEMBL document CHEMBL4028861.

Record form. Attribute: hepatocyte CLint. Fill in for each entry.
Assay: Intrinsic clearance in human hepatocytes assessed per million cells
Assay type: ADME, cell-based, Hepatocyte
Settings: read-out: CLH

What value of measured hepatocyte CLint is listed for `C[C@H](NC(=O)C(F)(F)F)[C@H](Oc1ccc2c(cnn2-c2ccc(F)cc2)c1)c1ccccc1` ?
< 2.1 µL/min/1e6 cells

What value of measured hepatocyte CLint is listed for `C[C@H](NC(=O)C(C)(F)F)[C@H](Oc1ccc2c(cnn2-c2ccc(F)cc2)c1)c1ccc2c(c1)OCCO2` ?
28 µL/min/1e6 cells

What value of measured hepatocyte CLint is listed for `C[C@H](NC(=O)C(F)(F)F)[C@H](Oc1ccc2c(cnn2-c2ccc(F)cc2)c1)c1cccc(OS(=O)(=O)O)c1` ?
< 2.7 µL/min/1e6 cells

What value of measured hepatocyte CLint is listed for `C[C@H](NC(=O)C(C)(F)F)[C@H](Oc1ccc2c(cnn2-c2cccc(C(=O)N3CCC[C@@H]3C(N)=O)c2)c1)c1ccc2c(c1)OCCO2` ?
11 µL/min/1e6 cells

What value of measured hepatocyte CLint is listed for `C[C@H](NC(=O)C(C)(F)F)[C@H](Oc1ccc2c(cnn2-c2cccc(C(=O)N[C@H]3CCOC3)c2)c1)c1ccc2c(c1)OCCO2` ?
30 µL/min/1e6 cells

What value of measured hepatocyte CLint is listed for COc1cccc([C@@H](Oc2ccc3c(cnn3-c3ccc(F)cc3)c2)[C@H](C)NC(=O)C(F)(F)F)c1 [AZD-5423] ?
16 µL/min/1e6 cells

What value of measured hepatocyte CLint is listed for CCCC1O[C@@H]2C[C@H]3[C@@H]4CCC5=CC(=O)C=C[C@]5(C)[C@H]4[C@@H](O)C[C@]3(C)[C@]2(C(=O)CO)O1 (stereo partly drawn) [BUDESONIDE] ?
20 µL/min/1e6 cells

What value of measured hepatocyte CLint is listed for C[C@H](NC(=O)C(C)(F)F)[C@H](Oc1ccc2c(cnn2-c2cccc(C(=O)N[C@@H]3CCOC3)c2)c1)c1ccc2c(c1)OCCO2 [VELSECORAT] ?
29 µL/min/1e6 cells

###

Experiment: Solubility of the compound in phosphate buffer at pH 7.4 using solid sample at 23 degreeC
Assay type: physicochemical
Measurement label: solubility thermodynamic (µM)
Numeric answer only, unit µM assumed.

What value of measured solubility thermodynamic is listed for C[C@H](NC(=O)C(C)(F)F)[C@H](Oc1ccc2c(cnn2-c2cccc(C(=O)N[C@@H]3CCOC3)c2)c1)c1ccc2c(c1)OCCO2 [VELSECORAT] ?
0.02

What value of measured solubility thermodynamic is listed for `C[C@H](NC(=O)C(C)(F)F)[C@H](Oc1ccc2c(cnn2-c2cccc(C(=O)NCc3cccnc3)c2)c1)c1ccc2c(c1)OCOC2` ?
0.02

What value of measured solubility thermodynamic is listed for `C[C@H](NC(=O)C(C)(F)F)[C@H](Oc1ccc2c(cnn2-c2cccc(C(=O)N[C@@H]3CCOC3=O)c2)c1)c1ccc2c(c1)OCCO2` ?
0.22

What value of measured solubility thermodynamic is listed for `C[C@H](NC(=O)C(C)(F)F)[C@H](Oc1ccc2c(cnn2-c2cccc(C(=O)N[C@H]3CCOC3)c2)c1)c1ccc2c(c1)OCOC2` ?
0.03

What value of measured solubility thermodynamic is listed for `C[C@H](NC(=O)C(C)(F)F)[C@H](Oc1ccc2c(cnn2-c2cccc(C(=O)N[C@H]3CCOC3)c2)c1)c1ccc2c(c1)OCCO2` ?
0.09
